Measured values drawn from patent EP4786492A1 for this set.

Listed here are binders together with their documented MFI.
molecular target: mouse DLL3 on CHO-K1-mDLL3 cells (mouse) (UniProt O88516); test: FACS, CHO-K1-mDLL3 cells, 0.0064 nM antibody
Sequence (O88516 other isoform, or with tags, fused parts or gaps limits assumed): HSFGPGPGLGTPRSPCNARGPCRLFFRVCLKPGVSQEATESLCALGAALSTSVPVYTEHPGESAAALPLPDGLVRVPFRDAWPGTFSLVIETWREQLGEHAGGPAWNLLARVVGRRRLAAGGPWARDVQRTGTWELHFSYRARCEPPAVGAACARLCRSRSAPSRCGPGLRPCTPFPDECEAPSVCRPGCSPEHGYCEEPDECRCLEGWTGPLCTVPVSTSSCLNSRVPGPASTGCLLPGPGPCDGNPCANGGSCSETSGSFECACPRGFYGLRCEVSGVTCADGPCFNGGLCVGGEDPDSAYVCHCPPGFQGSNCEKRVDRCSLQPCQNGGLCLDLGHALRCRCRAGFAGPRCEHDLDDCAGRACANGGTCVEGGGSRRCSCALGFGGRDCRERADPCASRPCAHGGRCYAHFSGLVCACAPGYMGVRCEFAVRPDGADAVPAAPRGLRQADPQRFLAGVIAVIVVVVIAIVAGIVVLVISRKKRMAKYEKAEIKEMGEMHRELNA
Provide only the numeric value, understood in MFI.

[[record]]
binder = "Hab015VL5VH6a-hFc (scFv, part only; not given: scFv linker and human IgG1 Fc, V domains shown, not shown: another chain or arm of the molecule; a dimerising Fc or GST; small tags and cut ends) VL: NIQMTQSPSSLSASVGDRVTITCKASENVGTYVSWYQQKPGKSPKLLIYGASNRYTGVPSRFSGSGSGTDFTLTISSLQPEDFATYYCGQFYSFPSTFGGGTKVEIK VH: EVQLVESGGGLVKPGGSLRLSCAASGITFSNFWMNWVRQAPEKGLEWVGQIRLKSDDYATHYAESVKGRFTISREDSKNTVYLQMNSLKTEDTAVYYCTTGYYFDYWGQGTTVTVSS"
obs_value = 131

[[record]]
binder = "Hab015VL4VH1b-hFc (scFv, part only; not given: VL-VH linker and human IgG1 Fc, V domains shown, not shown: another chain or arm of the molecule; a dimerising Fc or GST; small tags and cut ends) VL: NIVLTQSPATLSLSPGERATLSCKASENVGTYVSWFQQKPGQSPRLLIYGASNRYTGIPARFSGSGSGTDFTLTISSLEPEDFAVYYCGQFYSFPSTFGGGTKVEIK VH: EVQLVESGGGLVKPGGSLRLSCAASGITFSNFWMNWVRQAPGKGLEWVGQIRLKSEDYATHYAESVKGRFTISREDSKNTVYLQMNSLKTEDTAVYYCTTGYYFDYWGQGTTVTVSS"
obs_value = 123

[[record]]
binder = "Hab015VL4VH5a-hFc (scFv, part only; not given: VL-VH linker and human IgG1 Fc, V domains shown, not shown: another chain or arm of the molecule; a dimerising Fc or GST; small tags and cut ends) VL: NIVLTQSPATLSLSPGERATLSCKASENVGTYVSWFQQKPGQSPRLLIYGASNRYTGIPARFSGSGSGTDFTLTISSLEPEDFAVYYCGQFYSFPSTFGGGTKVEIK VH: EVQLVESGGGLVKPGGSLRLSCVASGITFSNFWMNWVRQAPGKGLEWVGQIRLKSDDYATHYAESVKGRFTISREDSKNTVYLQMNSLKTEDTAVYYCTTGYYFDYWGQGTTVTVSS"
obs_value = 126

[[record]]
binder = "Hab009VL2aVH1-hFc (scFv, part only; not given: VL-VH linker and human IgG1 Fc, V domains shown, not shown: another chain or arm of the molecule; a dimerising Fc or GST; small tags and cut ends) VL: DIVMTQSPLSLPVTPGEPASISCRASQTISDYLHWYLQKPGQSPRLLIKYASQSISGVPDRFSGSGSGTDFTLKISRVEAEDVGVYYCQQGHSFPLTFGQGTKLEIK VH: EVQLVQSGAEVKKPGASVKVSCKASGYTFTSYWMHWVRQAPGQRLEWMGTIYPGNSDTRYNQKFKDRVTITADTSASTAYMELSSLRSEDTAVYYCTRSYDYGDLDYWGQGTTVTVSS"
obs_value = 238

[[record]]
binder = "Hab013VL2VH2a-hFc (scFv, part only; not given: scFv linker and human IgG1 Fc, V domains shown, not shown: another chain or arm of the molecule; a dimerising Fc or GST; small tags and cut ends) VL: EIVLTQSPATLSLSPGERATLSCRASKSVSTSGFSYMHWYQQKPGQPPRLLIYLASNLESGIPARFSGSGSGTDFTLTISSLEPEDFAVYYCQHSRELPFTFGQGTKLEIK VH: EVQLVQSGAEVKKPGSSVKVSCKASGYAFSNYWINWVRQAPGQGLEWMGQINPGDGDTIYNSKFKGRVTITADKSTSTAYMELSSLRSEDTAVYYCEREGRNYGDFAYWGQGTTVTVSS"
obs_value = 125

[[record]]
binder = "Hab014VL2VH1-hFc (scFv, part only; not given: scFv linker and human IgG1 Fc, V domains shown, not shown: another chain or arm of the molecule; a dimerising Fc or GST; small tags and cut ends) VL: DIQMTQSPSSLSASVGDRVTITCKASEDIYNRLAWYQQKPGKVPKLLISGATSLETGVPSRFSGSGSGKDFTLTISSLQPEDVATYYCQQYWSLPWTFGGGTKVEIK VH: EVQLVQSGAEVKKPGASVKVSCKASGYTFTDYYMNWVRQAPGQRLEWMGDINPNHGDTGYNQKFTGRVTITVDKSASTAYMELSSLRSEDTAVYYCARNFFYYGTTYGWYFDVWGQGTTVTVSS"
obs_value = 118

[[record]]
binder = "Hab015VL5VH5a-hFc (scFv, part only; not given: scFv linker and human IgG1 Fc, V domains shown, not shown: another chain or arm of the molecule; a dimerising Fc or GST; small tags and cut ends) VL: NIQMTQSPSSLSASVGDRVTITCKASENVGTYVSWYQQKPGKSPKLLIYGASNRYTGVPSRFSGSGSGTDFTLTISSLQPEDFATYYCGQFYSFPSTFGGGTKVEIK VH: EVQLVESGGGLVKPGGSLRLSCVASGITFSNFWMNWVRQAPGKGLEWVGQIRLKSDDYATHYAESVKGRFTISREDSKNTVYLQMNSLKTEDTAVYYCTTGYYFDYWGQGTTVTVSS"
obs_value = 139

[[record]]
binder = "Hab015VL5VH1a-hFc (scFv, part only; not given: scFv linker and human IgG1 Fc, V domains shown, not shown: another chain or arm of the molecule; a dimerising Fc or GST; small tags and cut ends) VL: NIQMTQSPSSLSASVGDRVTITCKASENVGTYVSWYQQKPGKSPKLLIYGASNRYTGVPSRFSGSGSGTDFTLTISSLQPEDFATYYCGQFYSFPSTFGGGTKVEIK VH: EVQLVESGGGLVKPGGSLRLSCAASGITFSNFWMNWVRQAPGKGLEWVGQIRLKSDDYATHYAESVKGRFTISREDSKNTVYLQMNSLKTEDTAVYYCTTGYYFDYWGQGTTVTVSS"
obs_value = 131


Looking up Hab015VL4VH1a-hFc (scFv, part only; not given: scFv linker and human IgG1 Fc, V domains shown, not shown: another chain or arm of the molecule; a dimerising Fc or GST; small tags and cut ends) VL: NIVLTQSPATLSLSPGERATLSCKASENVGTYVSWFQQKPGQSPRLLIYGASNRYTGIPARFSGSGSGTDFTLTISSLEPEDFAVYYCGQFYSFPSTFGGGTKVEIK VH: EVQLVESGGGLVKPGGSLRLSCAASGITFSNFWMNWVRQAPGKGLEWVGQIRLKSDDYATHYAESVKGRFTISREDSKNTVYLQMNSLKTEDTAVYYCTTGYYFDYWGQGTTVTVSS , I see its MFI listed as 123

Looking up Hab006VL1VH4-hFc (scFv, part only; not given: VL-VH linker and human IgG1 Fc, V domains shown, not shown: another chain or arm of the molecule; a dimerising Fc or GST; small tags and cut ends) VL: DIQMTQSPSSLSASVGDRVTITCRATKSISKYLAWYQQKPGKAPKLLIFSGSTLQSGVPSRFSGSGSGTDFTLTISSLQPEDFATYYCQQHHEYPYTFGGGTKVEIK VH: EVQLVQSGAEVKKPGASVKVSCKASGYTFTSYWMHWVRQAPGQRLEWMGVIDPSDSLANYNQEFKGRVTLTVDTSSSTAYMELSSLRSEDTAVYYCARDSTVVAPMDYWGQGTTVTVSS , I see its MFI listed as 187
